# assay.method.text: yeast display, Sf9 membrane polyspecificity reagent, FACS + sequencing; frameworks hold sequencing errors
measured.endpoint: polyreactivity (PSR sort gate)

INSERT INTO assay_data (sequence_input, reported) VALUES
  ('QVQLVESGGGLVQAGGSLRLICAASGSIFVTNGMGWYRQAPGKERELVAAIRWSGDSTYYADSVKGRFTISRDNGKNTVFLLMKSLKPEDTAVYYCAAESFRYIRLNYKYGDYYWGQGTQVTVSS', 'high polyreactivity'),
  ('QVQLVESGGGLVQAGGSLRLSCAASGSIFHPYAMGWYRQAPGKERELVAAISKSGGNTYYADSVKGRFTISRDNAKNTVYLQMNSLKPEDTAVYYCAALDYWGQVTQVTVSS', 'low polyreactivity'),
  ('QVQLVESGGGLGQAGGSLRLSCAASGYTFGKYAMGWYRPAPGKERELVAAISWSGGSTYYADSVKGRFTISRDNAKNTVYLQMNSLKPEDTAVYYCNIGYIGRYGYWGQGTQVTVSS', 'high polyreactivity'),
  ('QVQLVESGGGLVQAGGSLRLSCAASGRTFRSNAMGWYRQAPGKERELVAAITRSGGNTYYADSVKGRFTISRDTAKNTVYLQMNSLKPEDTAVYYCADRYSNPWARVSGYDYWGQGTQVTVSS', 'high polyreactivity'),
  ('QVQLVESGGGLVQAGGSLRLICAASGRILSYYAMGWYRQAPGKERELVATINSGGSTNYADSVKGRFTISRDNAKNTVYLEMNSLKPEDTAVYYCAASPVWWYEYWGQGTQVNVSS', 'low polyreactivity');

----------
# assay.method.text: yeast display, Sf9 membrane polyspecificity reagent, FACS + sequencing; frameworks hold sequencing errors
measured.endpoint: polyreactivity (PSR sort gate)

INSERT INTO assay_data (sequence_input, measured_endpoint, reported) VALUES
  ('QVQLVESGGGLVQAGGRLRLSCADSGFTFDANAMGWYRQAPGKEPELVAAISLSDGSTYYADSVKGRFTISRDNAKNTVYLQMNSLKPEDTAVYYCNAERFGSGLAWLLFDYWGQGTQVTVSS', 'polyreactivity (PSR sort gate)', 'low polyreactivity'),
  ('QVQLVESGGGLVQAGGSLRLSCAASGRILSVYAMGWYRQAPGKERELVAAIEYSGGSTNYADSVKVRFTISRDTSKHTVYLLMNSLLPEDTAVYYCNGEGGAIAWRYLLEYLYSWGQGTQVTVSS', 'polyreactivity (PSR sort gate)', 'low polyreactivity'),
  ('QVQLVESGGGLVQAGGSLRLSCAPSGFTFLKNAMGWYRQAPGKERELVAAITGSGGSTYYADSVKGRFTISRDTEKNTVYLQMYSLKPEDTAVYYCNVRRGLRDYEYWGQGTQVTVSS', 'polyreactivity (PSR sort gate)', 'high polyreactivity'),
  ('QVQLVESGGGLVQAGGSLRLSCAASGYTFSFYAMGWYRQAPGKERELVAAISSSDGTTYYADSEKGRFTISRDNAKNTVYLQMNSLKPEDTAVYYCNTRYVRQVVGTYTLKTRYYWGQGTQVTVSS', 'polyreactivity (PSR sort gate)', 'high polyreactivity'),
  ('QVQLVESGGGLVQAGGSLRLSCAASGSSFEPNAMGWYRQAPGKERELVASITSSGGNTYYADSVKGRFTISRDNAKNTVYLQMNSLKPEDTAVYSCAAGSGYAFGGYYLWGFGYWGQGTQVTVSS', 'polyreactivity (PSR sort gate)', 'low polyreactivity'),
  ('QVQLVESGGGLVQARGSLRLICAASVQIFRVYAMGWSRQAPGKEREFVAAMTYDGGNTYYADSVKGRFTISRDNAKNTVYLQMLSLKPEDTAVYYCAKDYGEWGQGTQVTVSS', 'polyreactivity (PSR sort gate)', 'low polyreactivity'),
  ('QVQLVESGGGLVQAGGSLRLSCAASGFTFFKYAMGWYRQAPGKERELVAAITRNGGRTYYADSVKGRFTISRDYAKNTVYLQMNSLKPEDTAVYYCNAASVNGGRDFDYWGQGTQVTVSS', 'polyreactivity (PSR sort gate)', 'high polyreactivity'),
  ('HVQLVESGGGLVQAGGSLRLNCAASGSTFKRNAMGWYRQATGKERELVAAISRSGGSTYYADSVKGRFTISRDNAKTTVYLQMNSLNPEDTAVYFCNALRGTASWRGYYWGQGTQVTVSS', 'polyreactivity (PSR sort gate)', 'high polyreactivity'),
  ('QVQLVESGGGLVQAGGSLRLSCAASGMFGLNAMGWYRQAPGKERELVAAIRWTGSSTYYADSVKGRFTISRDNAKNTVYLQMNSLKPEDTADYYCAADFYVWGIWMEYWGQGTQVTVSS', 'polyreactivity (PSR sort gate)', 'high polyreactivity'),
  ('QVQLVESGGGLVQAGGSLRVSCAASGFTFPYSAMGWYRQAPGKERELVAAIDWTGGSTYYADSVKGRFTISRDNPKNTVNLQINSLIPDDTAVYYCARDVDYYISSPTPPVVELDYWGQGTQVTVSS', 'polyreactivity (PSR sort gate)', 'low polyreactivity'),
  ('QVQLVESGGGLVQAGGSLRLSCAASGSTYENAMGWYRQAPGKERELVAVISRSGGSTYYADSVKGRFTISRDNAKNTVYLQMNSLKPEDTAVYYCATVYSAWSWVHGYYVAMDYWGQGTQVTVSS', 'polyreactivity (PSR sort gate)', 'high polyreactivity'),
  ('QVQLGESGGGLVQAGGSLRLSCAASAYIFGSYAMGRSRQAAGKERELVATISYRAGRTYYADSVKGRFTISRDNAKNTVYLQMNSLKPEYTAVYFSDADFVIDLEYDYWGQGTQVTVSS', 'polyreactivity (PSR sort gate)', 'low polyreactivity'),
  ('QVQLVESGGGLVQAGGSLRLSCAASGSTFAGYAMGWYRQAPGKERELVAAISWNGGSTYYADSVKGRFTISRDNAKNTVYLQMNSLKPEDTAVYYCAKARYYSWKGKGDYWGQGTQVTVSS', 'polyreactivity (PSR sort gate)', 'high polyreactivity'),
  ('QVQLVESGGGLVQAGGSLRLSCAASGFTFGNNGMGWYRQAPGKERELVATISWSGGSTYADSVKGRFTISRDNAKNTVDLQMNSLKPEDTAVYYCAARYFVYYLEVDYWGQGTQVTVSS', 'polyreactivity (PSR sort gate)', 'low polyreactivity'),
  ('QVQLVESGGGLVQGGGSLRLSCAASGLIFYRNDMVWNRQAPGKERELVDAISKNGANTYYADSVKGRFTSSRDNAKNTVYLHMNCLKREDTAVYYCAKGVYYPWWYVQPEHDYWGQVTQVTVSS', 'polyreactivity (PSR sort gate)', 'high polyreactivity'),
  ('QVQHVESGGGLVQAGGSLRLSCAASGRTFNLKAMGWYRQAPGKERELVAAISWSGGSTYYADSVKGRFTISRDNAKNTVYLQMNSLKPEDTAVYYCAAETYAYLFHTYDYWGQGTQVTVSS', 'polyreactivity (PSR sort gate)', 'low polyreactivity'),
  ('QVQHVESGGGLVQAGGSLRLSCAASGSIFAYNAMGCYRQARGKERELVAAITSSGGSTYYADSVKGRFTISRDNAKNTVYLPMNSLKPEDTAVYYCNAYGYFKKYNYWGQGTQVTVSS', 'polyreactivity (PSR sort gate)', 'high polyreactivity'),
  ('QVQLVESGGGLVHAGGSLRLSCAASGLIFYDNMGWYRQAPGKERELVAAISSSGGSTSYADSVKGRFTISRDNAKNTVYLQMNSLKPEDTAVYYCAAVSGPFVQTSGNGEYDYWGQGTQVTVSS', 'polyreactivity (PSR sort gate)', 'low polyreactivity'),
  ('QVQLLESGGVLDQAGGSLRLTCAASGSIFFTNAMGWYRQAPGKERELVAAIRQSGGSTFYADSVKGRFTISRDNAKNTVYLQLNSLKPEDTAVFYCNADGRHKWQYSSYDYWGQGTQLTVSS', 'polyreactivity (PSR sort gate)', 'low polyreactivity'),
  ('QVQLVESGGGLVQAGRTLRLSCAPSGSIFSYYAMGWYRQAPGKERELVAAITSGGTTYYADSVKGRFTISRDNAKNTVYLQMNSVKPEDTAVYYCAADFVFRWYSYTGRWYSSYDYWGQGTQVTVSS', 'polyreactivity (PSR sort gate)', 'low polyreactivity'),
  ('QVQLVESGGGLVQAGGSLRLSCAASGSILSFNAMGWYRQAPGKERELVAAICRGGSTYYADSVKGRFTISRDNAKNTVYLQMNSLKPEDTAVYYCAVQLRRHVDMDYWGQGTQVTVSS', 'polyreactivity (PSR sort gate)', 'high polyreactivity');

----------
# assay.method.text: yeast display, Sf9 membrane polyspecificity reagent, FACS + sequencing; frameworks hold sequencing errors
measured.endpoint: polyreactivity (PSR sort gate)

INSERT INTO measurements (sequence_input, measured_endpoint, reported) VALUES
  ('QVQLVESGGGLVQAGGSLRLSCAASGRIYYQYAMGWYRQAPGKERELVAAITRGGNTYYADSVKGRFTISRDNAKNTVYLQMNSLKPEDTAVYYCNARWHTTGYRYDYWGQGTQVTVSS', 'polyreactivity (PSR sort gate)', 'high polyreactivity'),
  ('QVQLVESGGGLVQAGGSLRLSCAASGRNFYYYAMGWYRQAPGKERELVAAISASGGSTYYADSVKGRFTISRDNAKNTVYLQMNSLKPEDTAVYYCAARATTSQYNYYYWGQGTQVTVSS', 'polyreactivity (PSR sort gate)', 'high polyreactivity');

Value source: the nanobody polyreactivity screen of Harvey et al. (2022)
